Origin of measurements: patent EP4725969A1

Target: T1, recombinant human HER2 extracellular domain protein (human, UniProt P04626 23-652)
T1 construct: range 23-652; Range is printed for the immunogen/panning protein; also called ErbB2; recombinant HER2 protein
Experiment: BLI, Protein A capture
Collected koff values appear next to each entry.
The reply should be a number in s⁻¹, with the unit left off.

{"columns": ["binder", "units-of-measure", "readout-number"],
 "data": [
  ["2126-Hu-H35 (antibody, IgG1, V domains shown, IgG1/Cκ) VH: QVQLVQSGSELKKPGASVKVSCKASGYTFTDYSMHWVRQAPGQGLEWMGWINTETGEPTYADDVKGRFVFSLDTSVSTAYLQISSLKAEDTAVYFCVRVGRYDYAMDYWGQGTTVTVSS VL: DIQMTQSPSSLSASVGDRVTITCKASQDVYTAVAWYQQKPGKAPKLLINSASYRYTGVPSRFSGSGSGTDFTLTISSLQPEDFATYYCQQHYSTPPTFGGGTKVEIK", "s⁻¹", 0.000603],
  ["2126-Hu-H56 (antibody, IgG1, name in Kabat numbering, V domains shown, IgG1/Cκ) VH: QVQLVQSGSELKKPGASVKVSCKASGYTFTDYSMHWVRQAPGQGLEWMGWINTETGEPTYADDFKGRFVFSLDTSVSTAYLQISSLKAEDTAVYFCVRVGRYEYAMDYWGQGTTVTVSS VL: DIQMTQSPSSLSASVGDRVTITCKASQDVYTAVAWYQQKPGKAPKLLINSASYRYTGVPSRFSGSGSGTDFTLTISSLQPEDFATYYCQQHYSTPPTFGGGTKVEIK", "s⁻¹", 0.00476],
  ["2126-Hu-H42 (antibody, IgG1, V domains shown, IgG1/Cκ) VH: QVQLVQSGSELKKPGASVKVSCKASGYTFTDYSMHWVRQAPGQGLEWMGWINTETGEPTYADDFKGRFVFSLDTSKSTAYLQISSLKAEDTAVYFCVRVGRYDYAMDYWGQGTTVTVSS VL: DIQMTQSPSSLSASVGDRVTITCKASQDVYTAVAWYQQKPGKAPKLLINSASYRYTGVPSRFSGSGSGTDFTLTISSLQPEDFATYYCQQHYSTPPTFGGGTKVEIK", "s⁻¹", 0.000546],
  ["2126-Hu-L18 (antibody, IgG1, V domains shown, IgG1/Cκ) VH: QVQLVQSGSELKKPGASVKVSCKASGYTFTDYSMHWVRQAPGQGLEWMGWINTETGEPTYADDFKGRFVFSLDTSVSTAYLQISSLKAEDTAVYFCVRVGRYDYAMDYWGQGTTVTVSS VL: DIQMTQSPSSLSASVGDRVTITCKASQDVYTAVAWYQQKPGKAPKLLINSASYRYTGVPSRFSGSGSGTDFTLTISSLQPEDFATYYCQQSYSTPPTFGGGTKVEIK", "s⁻¹", 0.000912]
]}

Let us move to another entry and its koff.
Looking up 2126-Hu-L02 (antibody, IgG1, V domains shown, IgG1/Cκ) VH: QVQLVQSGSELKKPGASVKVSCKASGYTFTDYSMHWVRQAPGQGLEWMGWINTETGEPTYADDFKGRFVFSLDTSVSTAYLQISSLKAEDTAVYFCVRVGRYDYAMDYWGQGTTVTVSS VL: DIQMTQSPSSLSASVGDRVTITCRASQDVYTAVAWYQQKPGKAPKLLINSASYRYTGVPSRFSGSGSGTDFTLTISSLQPEDFATYYCQQHYSTPPTFGGGTKVEIK , I found its koff recorded as 0.000551
